Test system: SF-539 CNS
assay-comment: NCI tumour cell line growth inhibition, 384-well format
measurement-kind: TGI

C=CC(=O)Nc1cccc(Oc2nc(Nc3ccc(N4CCN(C)CC4)cc3OC)ncc2Cl)c1 :: 2.88 µM
Cc1ccccc1C(C(=O)NC1CCCCC1)N(C(=O)CNc1ncccc1F)c1cccc(F)c1 (stereo unspecified) :: > 100 µM
Cc1sc2c(c1C)C(c1ccc(Cl)cc1)=N[C@@H](CC(=O)NCCCN1CCN(C)CC1)c1nnc(C)n1-2 :: 26.9 µM
Cc1[nH]nc2ncc(C(=O)N3CCC[C@H]3c3ccc(Cl)cc3)cc12 :: > 100 µM
CC1Cc2ccccc2N1C(=O)Cc1nc(N2CCOCC2)cc(=O)[nH]1 (stereo unspecified) :: > 100 µM
CN(C)Cc1c(C(=O)NCCOc2ccc(C(=O)NO)cc2)oc2ccccc12 :: 2.1 µM
